tested on: canarygrass (Phalaris minor); assay: Test B postemergence plant response; type: in vivo; details: Postemergence, 62 g ai/ha; scale 0 (no effect) to 100 (complete control); 13 to 15 days
The reader will find reported Plant response rating, Canarygrass values listed item by item below.
readout-name: Plant response rating, Canarygrass

1. Cc1cccc(Cl)c1-n1c(-c2ccccc2)ncc(C(=O)C2=C(O)CCCC2=O)c1=O [Compound 46]	0
2. O=C1CCCC(O)=C1C(=O)c1cnc(-c2ccsc2)n(-c2ccccc2)c1=O [Compound 56]	30
3. O=C1CCCC(O)=C1C(=O)c1cnc(-c2ccccc2)n(-c2cccc(Br)c2)c1=O [Compound 38]	10
4. Cc1ccc(-n2c(-c3ccccc3)ncc(C(=O)C3=C(O)CCCC3=O)c2=O)cc1 [Compound 8]	50
5. O=C1CCCC(O)=C1C(=O)c1cnc(-c2cccc(Cl)c2)n(-c2ccc(Cl)cc2)c1=O [Compound 64]	40

* * *

system: velvetleaf (Abutilon theophrasti); experiment: Test B pre-/postemergence plant response; assay type: in vivo; conditions: Postemergence, 31 g ai/ha; 0 to 100 scale (0 no effect, 100 complete control)
The reader will find reported Plant response rating, Velvetleaf values listed item by item below.
readout-name: Plant response rating, Velvetleaf

1. CCc1ccc(-n2c(-c3ccccc3)ncc(C(=O)C3=C(O)CCCC3=O)c2=O)cc1	85
2. COCCn1c(-c2ccsc2)ncc(C(=O)C2=C(O)C3CCC(C3)C2=O)c1=O (stereo not shown)	80
3. CCCn1c(-c2ccsc2)ncc(C(=O)C2=C(O)C3CCC(C3)C2=O)c1=O (stereo not shown)	80
4. CCn1c(-c2ccccc2)ncc(C(=O)C2=C(O)C3CCC(C3)C2=O)c1=O (stereo not shown)	100

* * *

system: sunflower (common oilseed sunflower, Helianthus annuus); experiment: Test B pre-/postemergence plant response; assay type: in vivo; conditions: Preemergence, 125 g ai/ha; scale 0 to 100, 0 no effect, 100 complete control
The reader will find reported Plant response rating, Sunflower values listed item by item below.
readout-name: Plant response rating, Sunflower

1) CCCc1ncc(C(=O)C2=C(O)CCCC2=O)c(=O)n1-c1ccccc1C [Compound 73]	70
2) CCCCc1ncc(C(=O)C2=C(O)CCCC2=O)c(=O)n1-c1cccc(C)c1 [Compound 63]	20
3) CCCn1c(-c2cccs2)ncc(C(=O)C2=C(O)CCCC2=O)c1=O [Compound 77]	75
4) COc1ccc(-n2c(-c3ccccc3)ncc(C(=O)C3=C(O)CCCC3=O)c2=O)cc1OC [Compound 218]	90
5) CCc1ccc(-n2c(-c3ccccc3)ncc(C(=O)C3=C(O)CCCC3=O)c2=O)cc1 [Compound 219]	80

* * *

tested on: morningglory (Ipomoea spp.); test: Test A pre-/postemergence plant response; assay type: in vivo; conditions: Postemergence, 125 g ai/ha; 0 to 100 scale where 0 is no effect and 100 is complete control
readout-name: Plant response rating, Morningglory

1. CCCCn1c(-c2cccc(C)c2)ncc(C(=O)C2=C(O)CCCC2=O)c1=O	100
2. Cc1ccc(-n2c(-c3cccc(F)c3)ncc(C(=O)C3=C(O)CCCC3=O)c2=O)cc1	100
3. CCCc1ncc(C(=O)C2=C(O)CCCC2=O)c(=O)n1Cc1cccc(OC)c1	70
4. COCCn1c(-c2cccc(Cl)c2)ncc(C(=O)C2=C(O)CCCC2=O)c1=O	100
